tested on: HL-60; experiment: Differentiation inducing effect on HL-60 cells; assay type: functional, Homo sapiens
Reported Relative potency is given for each of the following molecules.

Completed entries (count: 3):
**Q:** For C=C1/C(=C\C=C2/CCC[C@]3(C)[C@@H]([C@@H](C)CCCC(C)(C)O)CC[C@@H]23)C[C@H](O)[C@@H](C)[C@@H]1O (stereo in doubt; form 2) , what is its reported Relative potency?
**A:** 1.5

**Q:** For C=C1/C(=C\C=C2/CCC[C@]3(C)[C@@H]([C@H](C)CCCC(C)(C)O)CC[C@@H]23)C[C@H](O)[C@H](C)[C@@H]1O (stereo in doubt; form 2) , what is its reported Relative potency?
**A:** 730

**Q:** For C=C1/C(=C\C=C2/CCC[C@]3(C)[C@@H]([C@@H](C)CCCC(C)(C)O)CC[C@@H]23)C[C@H](O)[C@@H](C)[C@@H]1O (stereo in doubt; form 1) , what is its reported Relative potency?
**A:** 6

The record that follows has no Relative potency shown yet.
**Q:** For C=C1/C(=C\C=C2/CCC[C@]3(C)[C@@H]([C@H](C)CCCC(C)(C)O)CC[C@@H]23)C[C@H](O)[C@H](C)[C@H]1O (stereo in doubt; form 2) , what is its reported Relative potency?
**A:** 0.5

Values compiled from ChEMBL document CHEMBL1133115.
